tested on: dog erythrocytes; assay: Erythrocyte damage (echinocyte formation in dog erythrocytes); type: cell-based; conditions: effect of metrizamide set at 10 as a standard, smaller number = higher compatibility
Listed compounds paired with reported Erythrocyte Damage
Give the figure only, with no unit attached.

Task item: What does the data say about its Erythrocyte Damage? Entry: O=C(c1c(I)c(C(=O)N(CCO)CCO)c(I)c(C(=O)N(CCO)CCO)c1I)N(CCO)CCO [C]
Reply: 1.8

Task item: // lookup Erythrocyte Damage for CC(=O)Nc1c(I)c(C(=O)N[C@H]2C(O)O[C@H](CO)[C@@H](O)[C@@H]2O)c(I)c(N(C)C(C)=O)c1I (stereo partly shown) [A, reference compound]
Reply: 10

Task item: Recorded Erythrocyte Damage of CNC(=O)c1c(I)c(C(=O)NC(CO)C(O)CO)c(I)c(C(=O)NC(CO)C(O)CO)c1I (stereo not shown) [G] , please.
Reply: 2.8

More entries:
Task item: Which measured Erythrocyte Damage value corresponds to CN(C)C(=O)c1c(I)c(C(=O)NCC(O)CO)c(I)c(C(=O)NCC(O)CO)c1I (stereo not shown) [F] ?
Reply: 2.7

Task item: Entry under review: CN(CC(O)CO)C(=O)c1c(I)c(C(N)=O)c(I)c(C(=O)N(C)CC(O)CO)c1I (stereo not shown) [D] . Reported Erythrocyte Damage?
Reply: 4.2

Task item: Please report the recorded Erythrocyte Damage for CN(CC(O)CO)C(=O)c1c(I)c(C(=O)N(C)CC(O)CO)c(I)c(C(=O)N(C)CC(O)CO)c1I (stereo not shown) [B] .
Reply: 2.1
